conditions: 298.15 K; 101 kPa
Observable: log10 of viscosity (log10 of the value in mPa·s)

Compound | Observable | Test result
FC1CC(F)(F)C(F)(F)C1(F)F (stereo not given) | log10 of viscosity | 0.22
CCCC[n+]1ccn(C)c1.O=C([O-])C(F)(F)F | log10 of viscosity | 1.72
CC1(c2ccccc2)OC1C#N (stereo not given) | log10 of viscosity | 0.96
CCCC[P+](C)(CCCC)CCCC.COS(=O)(=O)[O-] | log10 of viscosity | 2.72
C=C(C)C(=O)OC | log10 of viscosity | -0.25

* * *

details: 313.15 K; 101 kPa
Parameter: viscosity. Scope: all listed entries.

Molecule | viscosity / mPa·s
FC1CC(F)(F)C(F)(F)C1(F)F (stereo not given) | 1.28
CCCC[P+](C)(CCCC)CCCC.COS(=O)(=O)[O-] | 217
CCCC[n+]1ccn(C)c1.O=C([O-])C(F)(F)F | 37.83
CC1(c2ccccc2)OC1C#N (stereo not given) | 5.17
C=C(C)C(=O)OC | 0.4684

* * *

details: 323.15 K; 101 kPa
± gives the uncertainty stated by the source.
# Lookup of reported viscosity keyed by entry

Compound | viscosity
FC1CC(F)(F)C(F)(F)C1(F)F (centres undefined) | 1.08 ± 0.04 mPa·s
CCCC[n+]1ccn(C)c1.O=C([O-])C(F)(F)F | 26.11 ± 1.1 mPa·s
CCCC[P+](C)(CCCC)CCCC.COS(=O)(=O)[O-] | 133.4 ± 54 mPa·s
CC1(c2ccccc2)OC1C#N (centres undefined) | 3.522 ± 0.092 mPa·s
